Species on record: Sus scrofa
Test: Inhibition of porcine heart malate dehydrogenase assessed as critical aggregation concentration preincubated for 5 min followed by nicotinamide adenine dinucleotide addition and monitered for 90 sec by spectrophotometric method
Type: tissue-based
Reported CAC values are given for each entry in this list.
reportedEndpoint: CAC (µM)

molecule="CC(C)(C)[C@H]1CC[C@H](CC2=C(O)C(=O)c3ccccc3C2=O)CC1 [BUPARVAQUONE]" unitspec=µM readoutvalue=32
molecule=O=C(O)c1ccc(N2C(=O)/C(=C\c3ccc(-c4ccc([N+](=O)[O-])cc4)o3)C=C2c2ccccc2)cc1 unitspec=µM readoutvalue=6.2
molecule="Cc1cc(O)c2c(c1)C(=O)c1cc(O)cc(O)c1C2=O [EMODIN]" unitspec=µM readoutvalue=6
molecule="O=c1c(O)c(-c2cc(O)c(O)c(O)c2)oc2cc(O)cc(O)c12 [MYRICETIN]" unitspec=µM readoutvalue=7.4
molecule="O=C1c2c(O)cccc2Cc2cccc(O)c21 [ANTHRALIN]" unitspec=µM readoutvalue=4.5

---

Test: Inhibition of porcine heart malate dehydrogenase preincubated for 5 min followed by nicotinamide adenine dinucleotide addition and monitered for 90 sec by spectrophotometric method
Type: tissue-based, Sus scrofa
Reported IC50 values are given for each entry in this list.
reportedEndpoint: IC50 (µM)

compound=Cc1cc(-c2ccc(/N=N/c3ccc4c(S(=O)(=O)O)cc(S(=O)(=O)O)c(N)c4c3O)c(C)c2)ccc1/N=N/c1ccc2c(S(=O)(=O)O)cc(S(=O)(=O)O)c(N)c2c1O reportedendpoint=IC50 unitspec=µM readoutvalue=0.01
compound=COc1c2ccc(-c3ccccc3)oc-2cc(=O)c1C reportedendpoint=IC50 unitspec=µM readoutvalue=7.7
compound="Cc1c(C)c2c(c(C)c1O)CCC(C)(CCCC(C)CCCC(C)CCCC(C)C)O2 (centres undefined)" reportedendpoint=IC50 unitspec=µM readoutvalue=0.079
compound=CC(C)(C)[C@H]1CC[C@H](CC2=C(O)C(=O)c3ccccc3C2=O)CC1 reportedendpoint=IC50 unitspec=µM readoutvalue=8.2
compound=Cc1cc(O)c2c(c1)C(=O)c1cc(O)cc(O)c1C2=O reportedendpoint=IC50 unitspec=µM readoutvalue=12.7
compound=O=C(O)c1cccc(CN2C(=O)/C(=C(\c3ccccc3)c3ccc(Cl)cc3)c3ccccc32)c1 reportedendpoint=IC50 unitspec=µM readoutvalue=24
compound="COC(=O)C1=C(C)NC(C)=C(C(=O)OC(C)(C)CN(C)CCC(c2ccccc2)c2ccccc2)C1c1cccc([N+](=O)[O-])c1 (centres undefined)" reportedendpoint=IC50 unitspec=µM readoutvalue=2.2
compound=Cc1cc2c(C(C)C)c(O)c(O)c(C=O)c2c(O)c1-c1c(C)cc2c(C(C)C)c(O)c(O)c(C=O)c2c1O reportedendpoint=IC50 unitspec=µM readoutvalue=0.82
compound=O=C(O)c1ccc(N2C(=O)/C(=C\c3ccc(-c4ccc([N+](=O)[O-])cc4)o3)C=C2c2ccccc2)cc1 reportedendpoint=IC50 unitspec=µM readoutvalue=0.36
compound="O=C1C=C2CC3(O)COc4c(ccc(O)c4O)C3=C2C=C1O (centres undefined)" reportedendpoint=IC50 unitspec=µM readoutvalue=7.6
compound="c1ccc(-c2ccc(C(c3ccccc3)n3ccnc3)cc2)cc1 (centres undefined)" reportedendpoint=IC50 unitspec=µM readoutvalue=17
compound=Brc1c(Br)c(Br)c2[nH]nnc2c1Br reportedendpoint=IC50 unitspec=µM readoutvalue=14.6
compound=C/C(=C\c1ccc(C(=O)O)cc1)c1ccc2c(c1)C(C)(C)CCC2(C)C reportedendpoint=IC50 unitspec=µM readoutvalue=4.4
compound="COC(=O)C1=C(C)NC(C)=C(C(=O)OCCN2CCN(C(c3ccccc3)c3ccccc3)CC2)C1c1cccc([N+](=O)[O-])c1 (centres undefined)" reportedendpoint=IC50 unitspec=µM readoutvalue=2
compound=C[C@@H](NCCCc1cccc(C(F)(F)F)c1)c1cccc2ccccc12 reportedendpoint=IC50 unitspec=µM readoutvalue=74
compound=O=C1c2c(O)cccc2Cc2cccc(O)c21 reportedendpoint=IC50 unitspec=µM readoutvalue=2.5
compound=Oc1c(I)cc(Cl)c2cccnc12 reportedendpoint=IC50 unitspec=µM readoutvalue=4.3
compound=Cc1cc(O)c2c(=O)c3c(O)cc(O)c4c5c(O)cc(O)c6c(=O)c7c(O)cc(C)c8c1c2c(c34)c(c78)c65 reportedendpoint=IC50 unitspec=µM readoutvalue=0.15
compound=COc1ccc(-c2ccc3cc(C(=O)O)ccc3c2)cc1C12CC3CC(CC(C3)C1)C2 reportedendpoint=IC50 unitspec=µM readoutvalue=14
